Values compiled from PubChem BioAssay (Tox21).

- assay notes: qHTS assay to identify small molecule antagonists of the androgen receptor (AR) signaling pathway using the MDA cell line - cell viability counter screen (AID 743041; note: nearly all actives have a fitted effect of over 45% in size)
- run conditions: MDA-kb2 viability, CellTiter-Fluor, 16 h, cells co-treated with R1881 androgen agonist; series mostly up to 70.3 µM
Inconclusive results are not listed. Calls of active or inactive are those of the source. Calls come from the whole dose curve; as a rule, active = well fitted cell-killing curve with a large enough effect in the repeat runs; inconclusive = weak or mixed curves, or effect the other way; inactive = flat fitted curve, though single readings scatter.
One label from this list, please: active, inactive

Identify the outcome logged in this assay for the compound shown: COc1cc(S(C)=O)ccc1-c1nc2ncccc2[nH]1 (centres undefined)
inactive

Which outcome was entered for the compound CNc1cc(OC)c(C(=O)N[C@H]2CCN(Cc3ccccc3)[C@H]2C)cc1Cl in this test?
inactive

// param item: CC(NNC(=O)c1ccccc1)c1ccccc1 (centres undefined) ; yields the recorded call
inactive

For Cc1cccc(Nc2ncccc2C(=O)O)c1C , which call appears in the assay record?
inactive

Record request — test call for Cc1cc(C)c(NC(=O)C[C@H](CC(=O)O)c2cccc3ccccc23)c(C(=O)N2CCC3(CCCC3)CC2)c1
inactive

Test call for this compound, please: O=C(OC1C[C@@H]2CC3C[C@H](C1)N2CC3=O)c1c[nH]c2ccccc12 (some centres undefined)
inactive

Status in this test for Cn1cc(NC(=O)c2cc(NC(=O)c3cc(NC=O)cn3C)cn2C)cc1C(=O)NCCC(=N)N ?
inactive

Returns: the outcome recorded for CC(C)(C)C(=O)OCOC(=O)[C@@H]1N2C(=O)[C@@H](N=CN3CCCCCC3)[C@H]2SC1(C)C in this assay.
inactive

// outcome(item) with item = C[C@@H]1C/C=C/C=C/C=C/C=C/[C@H](O[C@@H]2O[C@H](C)[C@@H](O)[C@H](N)[C@@H]2O)C[C@@H]2O[C@](O)(C[C@@H](O)C[C@H]3O[C@@H]3/C=C/C(=O)O1)C[C@H](O)[C@H]2C(=O)O
inactive

// return assay outcome for CC1CC(OC(=O)C(O)c2ccccc2)CC(C)(C)C1 (centres undefined)
inactive
